organism: Homo sapiens; experiment: Cell viability of serum-deprived Jurkat cells were determined, 24 hours after incubation with 20 uM concentration of the compound, by MTT-assay; format: functional
Each entry below carries its reported Cell viability.
endpointLabel: Cell viability (%)

> print(dat)
                                   molecule   endpointlabel  unitspec  resultvalue
1  C[C@@H]1CCCO[C@]12O[C@H](CO)[C@@H](C)C[C@H]2S(=O)(=O)c1ccccc1  Cell viability         %         67.1
2  C[C@@H]1CCCO[C@@]12CC[C@H](C)[C@@H](COCc1ccccc1)O2  Cell viability         %          1.7
3  CC1CC[C@]2(CCCCO2)OC1 (stereo partly specified)  Cell viability         %         97.7
4  C[C@@H]1CCCO[C@@]12CC[C@H](C)[C@@H](CO[Si](c1ccccc1)(c1ccccc1)C(C)(C)C)O2  Cell viability         %         38.2
5                 C[C@@H]1CCCO[C@@]12CCCCO2  Cell viability         %         98.6
6  C[C@@H]1CCCO[C@@]12CC[C@H](C)[C@@H](COCOCc1ccccc1)O2  Cell viability         %         77.9

###

species: Homo sapiens; assay: Cell viability of serum-deprived Jurkat cells were determined, 24 hours after incubation with 20 uM concentration of the compound, by MTT-assay; type: functional
endpointLabel: Cell viability (%)

> print(dat)
                                   compound   endpointlabel  resultvalue
1  COCOC[C@H]1O[C@@]2(CC[C@@H]1C)OCCC[C@H]2C  Cell viability         89.1
2  C[C@@H]1CCCO[C@@]12CC[C@H](C)[C@@H](CO)O2  Cell viability           86
3  C[C@@H]1CCCO[C@]12O[C@H](CO[Si](c1ccccc1)(c1ccccc1)C(C)(C)C)[C@@H](C)C[C@H]2S(=O)(=O)c1ccccc1  Cell viability         79.5
4  C[C@@H]1CCCO[C@@]12CC[C@H](C)[C@@H](COC1CCCCO1)O2 (some centres undefined)  Cell viability         84.1
